Data origin, for the record: PubChem BioAssay (NCI)

Recorded growth inhibition for the following molecules
TEST PROTOCOL: NCI Yeast Anticancer Drug Screen. Data for the sgs1 mgt1 strain (AID 161);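 further: 0% = growth of cultures given vehicle only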
CONDITION SUMMARY: S. cerevisiae sgs1 mgt1 strain, at 5.0 µM (retest, dose inferred, filed as 0.5), hits give high values
About 79,000 compounds went through this panel and 15% of them were active in at least one assay; those are over-represented in the sample as a whole.
Entry rule: numbers only, all in %.

Example molecules with recorded growth inhibition:
O=C(O)c1ccc(NP(=O)(O)Oc2ccccc2)cc1 (tested in a mixture with another compound) = -20
C[CH2][Sn]([CH2]C)([O]C(C)=O)[O][Sn]([CH2]C)([CH2]C)[O]C(C)=O = 15
CCC1(O)C(=O)OCc2c1cc1n(c2=O)Cc2cc3cc(Cl)ccc3nc2-1 (stereo unspecified) = 62
N=C(N)c1ccccc1 = 2

Tell me its growth inhibition given "CCCCCCNC(=O)CI" as the entry.
-5

Tell me its growth inhibition given "CCCNC(=O)Nc1ccc2c(c1)Cc1cc(N(CCCl)CCCl)ccc1-2" as the entry.
-4
